System: HT-29
Experiment: NCI tumour cell line growth inhibition, 48 h
Active and inactive are the calls of the source. Cut-off read from the data, not from the text of the source: active = GI50 up to about 1.1 µM and inactive = higher. Where a SMILES comes first, the peptide text is derived from it. Square brackets hold non-standard residues; d marks the D form. Peptide text beside a SMILES is read from it. [ ]: non-standard residue; d: D form. The star is where a group is joined. * marks the point of attachment. X26 = COC1=CC(=O)N(C(=O)[C@@H](O*)C(C)C)[C@H]1Cc1ccccc1; Phe(4-NO2) = N[CH](Cc1ccc([N+](=O)[O-])cc1)C(=O)O; NMeL = CN[C@@H](CC(C)C)C(=O)O; Hexanoyl = CCCCCC(=O)*; Boc = CC(C)(C)OC(=O)*; OtBu = CC(C)(C)O*
Listed here are compounds together with their documented GI50.

Oc1ccc(-c2nc3ccccc3s2)cc1 has a reported GI50 of 42.3 µM (inactive)

COc1ccc(/C=C\c2cc(OC)c(OC)c(OC)c2)cc1OC(=O)C(N)CCC(=O)O (stereo unspecified) has a reported GI50 of 2.34 µM (inactive)

Cc1ccc(C(=O)N/N=C(\N=N\c2ccccc2)c2ccc(N(C)C)cc2)cc1 has a reported GI50 of > 100 µM (inactive)

COc1ccc2c(c1)[n+]([O-])c(-c1ccccc1Cl)c(N)[n+]2[O-] has a reported GI50 of 62.5 µM (inactive)

CC(=O)OCC1OC(N2C(=O)CC(N)=Nc3ccccc32)C(OC(C)=O)C(OC(C)=O)C1OC(C)=O (stereo unspecified) has a reported GI50 of 53.8 µM (inactive)

COC(=O)C(Cc1ccc([N+](=O)[O-])cc1)NC(=O)C(CC(=O)OC(C)(C)C)NC(=O)OC(C)(C)C (stereo unspecified) (Boc-Asp(OtBu)-[Phe(4-NO2)]-OMe; configuration not given here) has a reported GI50 of > 100 µM (inactive)

CCCCCC(=O)N[C@H](C(=O)N[C@H](C(=O)N(C)[C@@H](CC(C)C)C(=O)N1CCC[C@H]1C(=O)N1CCC[C@H]1C(=O)O[C@H](C(=O)N1C(=O)C=C(OC)[C@@H]1Cc1ccccc1)C(C)C)C(C)C)C(C)C (Hexanoyl-VV[NMeL]PP-X26) has a reported GI50 of > 100 µM (inactive)

Cc1cn(S(=O)(=O)c2ccccc2)c2c(OCc3ccccc3)cc(NS(C)(=O)=O)cc12 has a reported GI50 of 4.42 µM (inactive)

CC(=O)Oc1ccc(/C=C/C(=O)NCCOC(=O)/C=C/c2ccc(OC(C)=O)c(OC(C)=O)c2)cc1OC(C)=O has a reported GI50 of 25.6 µM (inactive)

CSc1nc(SC)c2c(CO)c(Br)n(Cc3ccccc3)c2n1 has a reported GI50 of 33.8 µM (inactive)

CC1=NN(c2nc(N)nc(CBr)n2)C(C)(C)C1 has a reported GI50 of 4.98 µM (inactive)

Just for reference, ChEMBL document CHEMBL1201862 is where these values come from.
